Would you mind telling me the reported MIC of each entry?

(Q) Report MIC for C[n+]1ccc(SCC2=C(C(=O)[O-])N3C(=O)[C@@H](NC(=O)/C(=N\OCC(N)=O)c4csc(N)n4)[C@H]3CO2)cc1 [No. 5] tested on E. coli NIHJ.
(A) ≤ 0.025 µg/mL

(Q) Provide the documented MIC with E. coli NIHJ as the system for CO/N=C(\C(=O)N[C@@H]1C(=O)N2C(C(=O)[O-])=C(CSc3cc[n+](CCF)cc3)OC[C@H]12)c1csc(N)n1 [No. 14]
(A) ≤ 0.025 µg/mL

(Q) Requested read-out MIC, target or system E. coli NIHJ, entry CO/N=C(\C(=O)N[C@@H]1C(=O)N2C(C(=O)[O-])=C(CSc3cc[n+](CC(=O)N4CCCC4)cc3)OC[C@H]12)c1csc(N)n1 [No. 2]
(A) ≤ 0.025 µg/mL

(Q) Write down the reported MIC of CO/N=C(\C(=O)N[C@@H]1C(=O)N2C(C(=O)[O-])=C(CSc3cc[n+](CC(=O)N4CCOCC4)cc3)OC[C@H]12)c1csc(N)n1 [No. 10] , test system: E. coli NIHJ.
(A) ≤ 0.025 µg/mL

(Q) // fetch E. coli NIHJ MIC for CO/N=C(\C(=O)N[C@@H]1C(=O)N2C(C(=O)[O-])=C(CSc3cc[n+](CC(=O)N(C)C)cc3)OC[C@H]12)c1csc(N)n1 [No. 6]
(A) ≤ 0.025 µg/mL

Data origin: patent US4898859A
